B1: LPCAT4 (parent)
chain: HDPLYGKLFSTYLRPPHTSRGTSQ

- Variants of: B1
- procedure details: protein stability index of a GFP-peptide fusion (GPS, HEK-293T) (PSI 1-6); higher = more stable;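 also: lentivirally expressed fusions sorted by FACS into six bins by GFP to DsRed ratio, PSI derived from sequencing read proportions per bin multiplied by bin number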
- experimental conditions: c terminus: a fixed tail appended
metric name: protein stability index
The response must contain the number and no unit.

Examples with answers:
sequence variant	protein stability index
S23T	2.66
T11R	2.94
F9Y	3.8
P3M	2.27
G21M	2.67
T18S	2.3
H17S	2.31
L13R	3.39

Report measured protein stability index; entry is `P3Q`
2.38

Return value of protein stability index for input `R20H` , no commentary.
2.86

Could you please provide reported protein stability index for `L8I` ? Thanks!
3.25

Output measured protein stability index for this item: `H1I`
3.4

Give the reported value of protein stability index for this record: `H1W`
2.38

Annotate the variant `T11W` with its measured protein stability index.
2.77

Return protein stability index for the following variant: `T18N`
3.05

Give protein stability index for the following variant: `R14S`
2.69

Identify protein stability index associated with the variant `L4V`
2.66

Report measured protein stability index; entry is `G6I`
1.6

Determine from records and report protein stability index for `S23V`
2.49

Identify measured protein stability index associated with `Y5I`
2.69

Identify measured protein stability index corresponding to `L4K`
1.9
